The measured values listed here are drawn from ChEMBL document CHEMBL1961873.

- study-system: Serine/threonine-protein kinase 3 (Homo sapiens);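 note: each value is the mean inhibition of MST2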
- particulars: at 1 µM
assay-readout: inhibition (%)

>>> print(df.to_string())
                                    compound  assay_readout  unit_of_measurement  reported_value
 0  CCN1CCC(CC(=O)Nc2n[nH]c3nc(-c4cccs4)c(Br)cc23)CC1     inhibition                    %           -2.74
 1  CS(=O)(=O)CCNCc1ccc(-c2ccc3ncnc(Nc4ccc(OCc5ccccc5)c(Cl)c4)c3c2)o1     inhibition                    %            0.47
 2  CCc1cccc(NC(=O)Nc2ccc(Oc3ccc4nc(NC(=O)OC)[nH]c4c3)cc2)c1     inhibition                    %            4.89
 3  Nc1nc(-c2ccc3c(c2)C(=Cc2cc(Br)c(O)c(Br)c2)C(=O)N3)cs1     inhibition                    %            12.2
 4  CC1=C(C(=O)Nc2ccc3[nH]ncc3c2)C(c2ccc3ccccc3c2)CC(=O)N1 (stereo not given)     inhibition                    %            9.79
 5  CC(=O)Nc1cccc(C#Cc2cncnc2Nc2ccc(OCc3cccc(F)c3)c(Cl)c2)n1     inhibition                    %            8.13
 6  COc1cc2ncn(-c3cc(O[C@@H](C)c4ccccc4Cl)c(C(N)=O)s3)c2cc1OC     inhibition                    %            34.8
 7  NCc1ccc(-c2nc(-c3ccc(Cl)c(O)c3)c(-c3ccncc3)[nH]2)cc1     inhibition                    %           -1.23
 8  CCn1c(-c2nonc2N)nc2c(C#CC(C)(C)O)nc(OC[C@@H](N)c3ccccc3)cc21     inhibition                    %            11.8
 9  CN(C)c1cc2c(Nc3ccc4nc(Cc5ccccc5)[nH]c4c3)ncnc2cn1     inhibition                    %            2.18
10      CNC(=O)c1cncc(/C=C/c2c(Cl)cccc2Cl)c1     inhibition                    %            8.47
11  CS(=O)(=O)CCNCc1nc(-c2ccc3ncnc(Nc4ccc(F)c(Cl)c4)c3c2)cs1     inhibition                    %            4.59
12  CC1=C(C(=O)Nc2ccc3[nH]ncc3c2)C(c2ccc(F)cc2)NC(=O)N1 (stereo not given)     inhibition                    %            6.58
13  NC(=O)c1cccc(Nc2nccc(Nc3cccc4[nH]ncc34)n2)c1     inhibition                    %            6.87
14    O=C1NC(=O)C(c2ccccc2Cl)=C1Nc1cccc(O)c1     inhibition                    %            22.5
15  COc1cc2ncn(-c3cc(OCc4ccccc4Cl)c(C(N)=O)s3)c2cc1OC     inhibition                    %            42.4
16  COc1cc2ncn(-c3cc(OCc4ccccc4C(F)(F)F)c(C(N)=O)s3)c2cc1OC     inhibition                    %            52.8
17  COc1cc(C)c(NC(=O)CN(C)C)cc1Nc1nc(Nc2cccc(F)c2C(N)=O)c2cc[nH]c2n1     inhibition                    %            7.94
18  CCn1c(-c2nonc2N)nc2c(C#CC(C)(C)O)nc(CN3CCCC3)cc21     inhibition                    %           -2.27
19  NC(=O)c1ccc(-c2nc(-c3ccccn3)c(-c3ccc4c(c3)OCO4)[nH]2)cc1     inhibition                    %            3.42

---

Listing of recorded inhibition by entry.
- study-system: Serine/threonine-protein kinase SIK2 (Homo sapiens) (UniProt Q9H0K1)
- Sequence (Q9H0K1 whole entry, looked up): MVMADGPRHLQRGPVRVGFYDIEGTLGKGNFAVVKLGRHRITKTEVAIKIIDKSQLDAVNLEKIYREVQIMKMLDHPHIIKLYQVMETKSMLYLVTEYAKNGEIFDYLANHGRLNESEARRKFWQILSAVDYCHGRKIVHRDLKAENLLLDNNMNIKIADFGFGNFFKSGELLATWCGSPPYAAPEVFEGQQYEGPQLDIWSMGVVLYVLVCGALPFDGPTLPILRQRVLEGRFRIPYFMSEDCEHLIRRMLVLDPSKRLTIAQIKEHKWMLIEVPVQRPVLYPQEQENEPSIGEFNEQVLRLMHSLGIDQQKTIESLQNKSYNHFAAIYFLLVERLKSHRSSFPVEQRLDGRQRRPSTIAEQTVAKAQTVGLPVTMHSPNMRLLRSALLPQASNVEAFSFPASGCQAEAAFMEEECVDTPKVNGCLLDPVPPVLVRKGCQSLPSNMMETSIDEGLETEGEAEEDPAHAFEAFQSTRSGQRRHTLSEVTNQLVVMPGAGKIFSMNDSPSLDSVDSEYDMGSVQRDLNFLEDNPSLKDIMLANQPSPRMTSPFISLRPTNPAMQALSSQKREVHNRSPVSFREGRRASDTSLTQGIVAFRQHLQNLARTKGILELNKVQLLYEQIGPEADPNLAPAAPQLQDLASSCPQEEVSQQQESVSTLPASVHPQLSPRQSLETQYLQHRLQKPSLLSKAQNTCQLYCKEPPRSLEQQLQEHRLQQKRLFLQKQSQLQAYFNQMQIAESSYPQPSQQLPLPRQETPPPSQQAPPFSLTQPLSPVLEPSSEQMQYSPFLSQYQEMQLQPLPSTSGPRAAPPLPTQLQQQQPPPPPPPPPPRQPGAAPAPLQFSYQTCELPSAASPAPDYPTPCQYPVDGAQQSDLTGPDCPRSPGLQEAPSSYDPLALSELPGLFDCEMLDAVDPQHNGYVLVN
- particulars: at 0.1 µM
- Description: GSK_PKIS: SNF1LK2 (QIK) mean inhibition at 0.1 uM [Nanosyn]
assay-readout: inhibition

>>> df
                            compound_smiles  reported_value
0  CS(=O)(=O)CCN(CC#N)Cc1ccc(-c2ccc3ncnc(Nc4ccc(OCc5cccc(F)c5)c(Cl)c4)c3c2)o1           1.11%
1  NS(=O)(=O)c1ccc(N/N=C2\C(=O)Nc3ccc(C(=O)NCCc4c[nH]cn4)cc32)cc1           6.36%
2  CS(=O)(=O)CCNCc1ccc(-c2ccc3ncnc(Nc4ccc(OCc5ccccc5)c(Cl)c4)c3c2)o1          -3.07%
3  NS(=O)(=O)c1cccc(-c2ccc3c(NC(=O)C4CC4)n[nH]c3c2)c1          -0.65%
4  CS(=O)(=O)Nc1ccc(N/C=C2\C(=O)Nc3ccccc32)cc1           4.05%

---

- study-system: Death-associated protein kinase 1 (Homo sapiens);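 note: each value is a mean inhibition figure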
- particulars: at 1 µM
assay-readout: inhibition (%)

                             compound_smiles  unit_of_measurement  reported_value
 0    N#Cc1c(NC(=O)c2cccc3ccccc23)sc2c1CCCC2                    %            9.29
 1  CS(=O)(=O)CCNCc1ccc(-c2ccc3ncnc(Nc4ccc(OCc5cccc(F)c5)c(C(F)(F)F)c4)c3c2)o1                    %            12.3
 2       Cn1cc(C=C2C(=O)Nc3cccnc32)c2ccccc21                    %            7.28
 3  CN1CCC(C(=O)Nc2n[nH]c3nnc(-c4ccccc4)cc23)CC1                    %           -2.32
 4  NC(=O)c1ccc(-c2nc(-c3ccccn3)c(-c3ccc4c(c3)OCO4)[nH]2)cc1                    %            2.62
 5  CS(=O)(=O)CCNCc1nc(-c2ccc3ncnc(Nc4ccc(F)c(Cl)c4)c3c2)cs1                    %            6.48
 6  CCCN1CCC(Oc2cc(Nc3nc(Nc4cccc(F)c4C(N)=O)c4cc[nH]c4n3)c(OC)cc2Cl)CC1                    %            16.8
 7  CCn1c(-c2nonc2N)nc2c(C#CC(C)(C)O)nc(CN3CCCC3)cc21                    %           -0.31
 8  COc1cccc(-n2ncc3c(N/N=C/c4cccc(F)c4)ncnc32)c1                    %           -1.39
 9  O=C1NC(=O)C(N2CCc3ccccc32)=C1c1ccc(Cl)cc1                    %            13.8
10  COC(=O)Nc1nc2cc(Oc3cccc(NC(=O)Nc4cc(C(F)(F)F)ccc4F)c3)ccc2[nH]1                    %            -0.6
11             COc1ccccc1Nc1ncc(-c2ccccc2)o1                    %           -4.43
12     Cc1cccc(-c2n[nH]cc2-c2ccc3ncccc3n2)n1                    %            0.85
13  NCc1ccc(-c2nc(-c3ccc(Cl)c(O)c3)c(-c3ccncc3)[nH]2)cc1                    %            1.16
14  Cc1cc(O)cc(C)c1/C=C/c1cncc(-c2nn[nH]n2)c1                    %            3.95
15  Cc1nn(C)c2cc(N(C)c3ccnc(Nc4cccc(S(N)(=O)=O)c4)n3)ccc12                    %            8.09
16       CCn1c(-c2nonc2N)nc2c(N3CCCC3)nccc21                    %             0.8
17  COc1cc2c(cc1Nc1nc(N3CCc4ccccc43)c3cc[nH]c3n1)N(C(=O)CN(C)C)CC2                    %            5.32
18  Fc1cccc(COc2ccc(Nc3ncnc4sc(-c5cccs5)cc34)cc2Cl)c1                    %            -9.5
19  NC(=O)c1cccc(Nc2nccc(Nc3cccc4[nH]ncc34)n2)c1                    %             0.2
20  c1cnn2ncc(-c3ccnc(Nc4ccc5c(c4)OCCO5)n3)c2c1                    %            3.76
